- system name: human ErbB2, full length, on cells (B300.19/hErbB2 clone #44; MCF7; BT474; SKBR3) (human)
measure: EC50 (ng/ml) n2, inhibition of Heregulin-induced ErbB2 phosphorylation in MCF7 cells (ng/mL)
Write down the numeric answer in ng/mL and omit the unit.

# EC50 (ng/ml) n2, inhibition of Heregulin-induced ErbB2 phosphorylation in MCF7 cells of monoclonal antibody 1.96 (antibody, V domains shown) VH: EVQLVESGGGLVQPGGSLRLSCAASGFTFSSYWMSWVRQAPGKGLEWVANIKQDGSEKYYVDSVKGRFTISRDNAKNSLYLQMNSLRAEDTAVYYCARWGVFGSGSYYIPFDYWGQGTLVTVSS VL: DIQMTQSPSSLSASVGDRVTITCRASHSITRYINWYQQKPGKAPNLLIYAASSLQSGVPSRFSGSGSGTDFTLTISSPQPEDFATYYCQQSYSSPPITFGQGTRLEIK = 34
